Target: UniProtKB Q9H9B1
Sequence (Q9H9B1 1-1298): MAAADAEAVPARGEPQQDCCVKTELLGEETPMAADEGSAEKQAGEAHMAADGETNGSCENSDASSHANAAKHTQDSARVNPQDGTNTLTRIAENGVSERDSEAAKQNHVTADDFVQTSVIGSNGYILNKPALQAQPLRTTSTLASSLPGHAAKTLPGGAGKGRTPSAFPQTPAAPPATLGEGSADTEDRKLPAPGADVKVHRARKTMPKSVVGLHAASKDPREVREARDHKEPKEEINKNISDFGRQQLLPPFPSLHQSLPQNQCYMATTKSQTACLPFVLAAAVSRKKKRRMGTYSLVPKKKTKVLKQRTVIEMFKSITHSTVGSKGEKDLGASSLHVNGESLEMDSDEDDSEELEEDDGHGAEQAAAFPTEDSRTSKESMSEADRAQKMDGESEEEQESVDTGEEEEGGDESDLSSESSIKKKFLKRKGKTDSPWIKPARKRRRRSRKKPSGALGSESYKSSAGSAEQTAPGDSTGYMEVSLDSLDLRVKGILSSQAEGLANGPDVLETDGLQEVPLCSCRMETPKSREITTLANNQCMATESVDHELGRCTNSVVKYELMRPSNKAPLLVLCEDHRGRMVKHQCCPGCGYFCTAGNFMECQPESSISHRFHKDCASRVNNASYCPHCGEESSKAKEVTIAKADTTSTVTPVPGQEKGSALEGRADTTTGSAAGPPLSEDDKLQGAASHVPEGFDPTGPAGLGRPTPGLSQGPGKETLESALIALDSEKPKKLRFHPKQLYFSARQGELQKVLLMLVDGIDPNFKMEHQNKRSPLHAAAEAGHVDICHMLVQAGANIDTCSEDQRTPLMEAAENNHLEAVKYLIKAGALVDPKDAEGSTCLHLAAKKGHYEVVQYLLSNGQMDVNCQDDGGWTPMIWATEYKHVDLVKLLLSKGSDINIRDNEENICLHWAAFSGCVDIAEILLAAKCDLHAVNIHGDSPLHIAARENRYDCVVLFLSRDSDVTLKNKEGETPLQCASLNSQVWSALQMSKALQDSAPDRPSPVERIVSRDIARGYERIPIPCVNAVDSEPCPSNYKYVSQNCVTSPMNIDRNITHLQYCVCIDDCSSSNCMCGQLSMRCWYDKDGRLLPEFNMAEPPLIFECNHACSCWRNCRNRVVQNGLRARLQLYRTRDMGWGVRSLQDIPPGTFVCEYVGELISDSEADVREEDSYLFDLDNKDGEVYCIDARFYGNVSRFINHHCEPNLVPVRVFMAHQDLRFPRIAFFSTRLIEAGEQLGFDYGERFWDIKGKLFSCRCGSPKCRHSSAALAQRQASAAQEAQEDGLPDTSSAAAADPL
Test: EHMT1 PEP (EHMT1 peptide enzyme assay)
Type: biochemical
Settings: peptide substrate enzyme assay
Assignment: determine reported IC50 for the given compounds.

# annotated cases, reported IC50 shown
compound: CNC(=O)CCNc1cc(C)nc(Nc2ccc(OC)c(-n3cc4c(n3)CCN(C)C4)c2)n1
testedSystem: UniProtKB Q9H9B1
assayEndpoint: IC50
measured: < 0.1 µM
--
compound: CCNCc1cn(-c2cc(Nc3nccc(NC)n3)ccc2OC)nn1
testedSystem: UniProtKB Q9H9B1
assayEndpoint: IC50
measured: 0.1 to 1 µM

# batch: return IC50 for each of the 5 compounds below
1. CNc1cc(C)nc(Nc2ccc(OC)c(-n3ncc4ncccc43)c2)n1
2. CNc1cc(C)nc(Nc2ccc(Cl)c(-n3cc(C4CCCN4)cn3)c2)n1 (stereo not drawn)
3. CNc1cc(C)nc(Nc2ccc(Cl)c(C(=O)Nc3ccnnc3)c2)n1
4. CNc1cc(C)nc(Nc2ccc(OC)c(-c3[nH]c4cnccc4c3C)c2)n1
5. CNc1cc(C)nc(Nc2ccc(C)c(C(=O)Nc3cn(C)cn3)c2)n1

stdout:
1 to 10 µM
< 0.1 µM
> 10 µM
< 0.1 µM
> 10 µM

---

molecular target: EHMT1 (Homo sapiens); assay: EHMT1 PEP (EHMT1 peptide enzyme assay); type: biochemical; conditions: peptide substrate enzyme assay
Assignment: determine reported IC50 for the given molecules.

molecule: CNc1cc(C)nc(Nc2ccc(OC)c(-n3cc4c(n3)CCN(C3COC3)C4)c2)n1 [Compound 69]
testedSystem: EHMT1 (Homo sapiens)
IC50: > 10 µM
--
molecule: CNc1cc(C)nc(Nc2ccc(OC)c(-n3cc4c(C)nccc4n3)c2)n1 [Compound 99]
testedSystem: EHMT1 (Homo sapiens)
IC50: 1 to 10 µM
--
molecule: CNc1cc(C)nc(Nc2cccc(C(=O)Nc3cccnc3)c2)n1 [Compound 242]
testedSystem: EHMT1 (Homo sapiens)
IC50: > 10 µM
--
molecule: CNc1cc(C)nc(Nc2ccc(OC)c(-n3ncc4c3CCCN4)c2)n1 [Compound 32]
testedSystem: EHMT1 (Homo sapiens)
IC50: > 10 µM
--
molecule: CNc1cc(C)nc(Nc2ccc(OC)c(-c3ccc4c(c3)NC(=O)C4)c2)n1 [Compound 218]
testedSystem: EHMT1 (Homo sapiens)
IC50: > 10 µM

# batch: return IC50 for each of the 6 molecules below
1. CNc1cc(C)nc(Nc2ccc(OC)c(-c3cc(C4CC4)ncn3)c2)n1 [Compound 232]
2. CCc1ccc(Nc2nc(C)cc(NC)n2)cc1-c1cc2ccncc2[nH]1 [Compound 269]
3. CNc1cc(-c2cc(Nc3nc(C)cc(NC)n3)ccc2OC)ncn1 [Compound 225]
4. CNc1cc(C)nc(Nc2ccc(OC)c(-n3cc4c(OC)nccc4n3)c2)n1 [Compound 100]
5. CNc1cc(C)nc(Nc2ccc(OC)c(-c3cc4cnccc4[nH]3)c2)n1 [Compound 48]
6. CNCc1cnn(-c2cc3c(cc2OC)C2(CCC2)C(N)=N3)c1 [Compound 186]

stdout:
1 to 10 µM
< 0.1 µM
< 0.1 µM
> 10 µM
< 0.1 µM
< 0.1 µM

# batch: return IC50 for each of the 5 molecules below
1. CNC1=Nc2cc(-c3cc4ccncc4[nH]3)c(OC)cc2C12CCC2 [Compound 215]
2. CNc1cc(C)nc(Nc2ccc(C)c(C(=O)Nc3cnccn3)c2)n1 [Compound 287]
3. CNCc1cnn(-c2cc(Nc3nc(C)cc(NC)n3)ccc2OC)c1 [Compound 285]
4. COc1cc(NC2CCNCC2)ccc1-c1[nH]c2cnccc2c1C [Compound 310]
5. CNc1cc(C)nc(Nc2ccc(OC)c(-c3cc4[nH]c(C)cc4cn3)c2)n1 [Compound 207]

stdout:
["< 0.1 µM", "0.1 to 1 µM", "< 0.1 µM", "1 to 10 µM", "< 0.1 µM"]

# batch: return IC50 for each of the 2 molecules below
1. CCN(CC)Cc1cn(-c2cc(Nc3nc(C)cc(NC)n3)ccc2OC)nn1 [Compound 143]
2. CNc1cc(C)nc(Nc2ccc(OC)c(-n3cc4c(n3)CCN(C3CC3)C4)c2)n1 [Compound 82]

stdout:
["0.1 to 1 µM", "0.1 to 1 µM"]

---

biological target: recombinant purified human EHMT2 913-1193 (Homo sapiens, UniProt Q96KQ7); construct: Recombinant purified human EHMT2 913-1193 (55 μM) synthesized by Viva was used for all experiments; purchased Viva; assay: EHMT2 enzyme assay on histone peptide substrate (3H-SAM Flashplate); format: biochemical; details: read-out: EHMT2 PEP (IC50 μM)
Sequence (Q96KQ7 913-1193): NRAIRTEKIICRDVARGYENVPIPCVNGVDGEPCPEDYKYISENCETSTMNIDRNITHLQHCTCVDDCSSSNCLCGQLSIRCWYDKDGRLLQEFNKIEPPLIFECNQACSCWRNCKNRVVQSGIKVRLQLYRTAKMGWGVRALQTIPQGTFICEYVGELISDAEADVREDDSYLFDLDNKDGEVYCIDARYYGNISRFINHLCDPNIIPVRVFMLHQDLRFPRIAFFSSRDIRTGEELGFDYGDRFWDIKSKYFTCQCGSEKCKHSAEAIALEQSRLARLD
Assignment: determine reported IC50 for the given compounds.

compoundSmiles: CNc1cc(C)nc(Nc2ccc(OC)c(-c3cc4ccncc4[nH]3)c2)n1
IC50: < 0.1 µM

compoundSmiles: CCc1ccc(Nc2nc(C)cc(NC)n2)cc1-n1cc(CNC)cn1
IC50: < 0.1 µM

compoundSmiles: CNc1cc(C)nc(Nc2ccc(OC)c(-n3cc4cc(C)ccc4n3)c2)n1
IC50: 1 to 10 µM

compoundSmiles: CNc1ccnc(Nc2ccc(OC)c(-n3cc(CNCC4CC4)nn3)c2)n1
IC50: 1 to 10 µM

compoundSmiles: CNc1cc(C)nc(Nc2ccc(OC)c(-c3cc4[nH]ccc4cn3)c2F)n1
IC50: 0.1 to 1 µM

# batch: return IC50 for each of the 2 compounds below
1. CNc1cc(C)nc(Nc2ccc(OC)c(-c3cn4c(n3)CN(C)CC4)c2)n1
2. CNC1=Nc2cc(-c3cnc4cc[nH]c4c3)c(OC)cc2C12CCC2

stdout:
1. > 10 µM
2. < 0.1 µM

stdin: Using known records, supply IC50 for `CNc1nc(Nc2ccc(OC)c(-n3ncc4c3CCNC4)c2)nc(C)c1F`
stdout: 1 to 10 µM

---

Assignment: determine reported IC50 for the given molecules.
molecular target: recombinant purified human EHMT2 913-1193 (Homo sapiens); construct: Recombinant purified human EHMT2 913-1193 (55 μM) synthesized by Viva was used for all experiments; purchased Viva; test: EHMT2 enzyme assay on histone peptide substrate (3H-SAM Flashplate); type: biochemical; conditions: read-out: EHMT2 PEP (IC50 μM)

compoundSmiles: CNc1cc(C)nc(Nc2ccc(C)c(C(=O)Nc3cn(C)cn3)c2)n1
testedSystem: recombinant purified human EHMT2 913-1193 (Homo sapiens)
IC50: > 10 µM
--
compoundSmiles: CNc1nc2cc(-c3[nH]c4cnccc4c3C)c(OC)cc2n1C
testedSystem: recombinant purified human EHMT2 913-1193 (Homo sapiens)
IC50: 0.1 to 1 µM
--
compoundSmiles: CNc1nc2cc(-c3cc4[nH]ccc4cn3)c(OC)cc2n1C
testedSystem: recombinant purified human EHMT2 913-1193 (Homo sapiens)
IC50: 1 to 10 µM
--
compoundSmiles: CNc1cc(C)nc(Nc2cnc(OC)c(-n3ncc4c3CCNC4)c2)n1
testedSystem: recombinant purified human EHMT2 913-1193 (Homo sapiens)
IC50: 1 to 10 µM
--
compoundSmiles: CNC1=Nc2cc(-c3cc4[nH]ccc4nc3C)c(OC)cc2C12CCC2
testedSystem: recombinant purified human EHMT2 913-1193 (Homo sapiens)
IC50: 0.1 to 1 µM

# batch: return IC50 for each of the 4 molecules below
1. CNc1cc(C)nc(Nc2ccc(OC)c(-c3nc4cnccc4[nH]3)c2)n1
2. CNCc1cn(-c2cc(Nc3nc(C)cc(NC)n3)ccc2OC)nn1
3. CNc1cc(C)nc(Nc2ccc(OC)c(-c3cc4cnccn4n3)c2)n1
4. CNCc1cnn(-c2cc(Nc3nc(C)cc(NC)n3)ccc2C#N)c1

stdout:
1 to 10 µM
< 0.1 µM
> 10 µM
< 0.1 µM
